Numbers sourced from patent US5225583A.

// λmax lookup, one value per entry
assay: Ultraviolet ray absorption spectrum; format: physicochemical; details: ultraviolet ray absorption

Compound: CCCCC(CC)C(=O)CC(=O)c1cc(CCC[Si](C)(O[Si](C)(C)C)O[Si](C)(C)C)c(OC)c(OC)c1 (stereo not drawn)
λmax (nm): 334
--
Compound: COc1cc(C(=O)CC(=O)C(C)(C)C)ccc1OCC(C)C[Si](C)(O[Si](C)(C)C)O[Si](C)(C)C (stereo not drawn)
λmax (nm): 334
--
Compound: COc1cc(C(=O)CC(=O)C(C)(C)C)ccc1OCCC[Si](C)(C)O[Si](C)(C)C
λmax (nm): 335
--
Compound: COc1cc(C(=O)CC(=O)C(C)(C)C)ccc1OCCC[Si](C)(O[Si](C)(C)C)O[Si](C)(C)C
λmax (nm): 334
--
Compound: COc1cc(C(=O)CC(=O)C(C)(C)C)ccc1OCCCCC[Si](C)(O[Si](C)(C)C)O[Si](C)(C)C
λmax (nm): 334
--
Compound: COc1cc(C(=O)CC(=O)C(C)(C)C)cc(CCC[Si](C)(O[Si](C)(C)C)O[Si](C)(C)C)c1O
λmax (nm): 342

---

experiment: Ultraviolet ray absorption spectrum; type: physicochemical; design: unit not given beside the values; conditions: at λmax
// ε lookup, one value per entry

Compound: COc1cc(C(=O)CC(=O)C(C)(C)C)ccc1OCCCCC[Si](C)(O[Si](C)(C)C)O[Si](C)(C)C [Compound 8]
ε: 23220
//
Compound: CCCCC(CC)C(=O)CC(=O)c1cc(CCC[Si](C)(O[Si](C)(C)C)O[Si](C)(C)C)c(OC)c(OC)c1 (stereo not drawn) [Compound 5]
ε: 23500
//
Compound: COc1cc(C(=O)CC(=O)C(C)(C)C)ccc1OCCC[Si](C)(C)O[Si](C)(C)C [Compound 1]
ε: 24090
//
Compound: COc1cc(C(=O)CC(=O)C(C)(C)C)ccc1OCC(C)C[Si](C)(O[Si](C)(C)C)O[Si](C)(C)C (stereo not drawn) [Compound 7]
ε: 27350
//
Compound: COc1cc(C(=O)CC(=O)C(C)(C)C)ccc1OCCC[Si](C)(O[Si](C)(C)C)O[Si](C)(C)C [Compound 2]
ε: 23550
//
Compound: COc1cc(C(=O)CC(=O)C(C)(C)C)cc(CCC[Si](C)(O[Si](C)(C)C)O[Si](C)(C)C)c1O [Compound 9]
ε: 24000

---

// Solubility, Sil. KF96, 30% lookup, one value per entry
assay: Test for solubility of alkyl-aryl 1,3-propanedione silicone derivative in silicone-based oils and Squalene at 25° C.; type: physicochemical; settings: Silicone KF96, 30% (w/w)

Molecule: CCCCC(CC)C(=O)CC(=O)c1cc(CCC[Si](C)(O[Si](C)(C)C)O[Si](C)(C)C)c(OC)c(OC)c1 (stereo not shown) [Compound 6]
Solubility, Sil. KF96, 30%: .largecircle.

Molecule: CCCCC(CC)C(=O)CC(=O)c1cc(CCC[Si](C)(O[Si](C)(C)C)O[Si](C)(C)C)c(OC)c(OC)c1 (stereo not shown) [Compound 5]
Solubility, Sil. KF96, 30%: .largecircle.

Molecule: COc1cc(C(=O)CC(=O)C(C)(C)C)ccc1OCCCCC[Si](C)(O[Si](C)(C)C)O[Si](C)(C)C
Solubility, Sil. KF96, 30%: .largecircle.

Molecule: COc1cc(C(=O)CC(=O)C(C)(C)C)ccc1OCCC[Si](C)(C)O[Si](C)(C)C
Solubility, Sil. KF96, 30%: .largecircle.
